- assay-target: Polymerase acidic protein (Influenza A virus (A/Puerto Rico/8/1934(H1N1))) (UniProt P03433)
- method-notes: Inhibition of Influenza A virus N-terminal Polymerase acidic protein endonuclease activity in HEK293T cells transfected with IAV RNA polymerase complex and firefly/renilla luciferase reporter at 10 uM by […] Dual-Glo luciferase assay relative to control
- Type: cell-based
Hi all, reminder that labels come from inhibition, split as class 1 = under 50%, class 2 = from 50% up to 70%, class 3 = 70% and over

Please review the entries below; each comes with its answer.
CC(C)C[C@@H]1CN(C2c3ccccc3CCc3ccccc32)n2ccc(=O)c(O)c2C(=O)N1 :: class 2
C[C@@H]1CN(C2c3ccccc3CCc3ccccc32)n2ccc(=O)c(O)c2C(=O)N1 :: class 3
O=C1NC2(CCCC2)CN(C2c3ccccc3CCc3ccccc32)n2ccc(=O)c(O)c21 :: class 1
O=C1c2c(O)c(=O)ccn2N(C2c3ccccc3CCc3ccccc32)C[C@H]2CCCCN12 :: class 2

Exam item: assign `CC(C)[C@H]1CN(C2c3ccccc3CCc3ccccc32)n2ccc(=O)c(O)c2C(=O)N1` to the correct category.
class 1

Exam item: assign O=C1c2c(O)c(=O)ccn2N(C2c3ccccc3SCc3c2ccc(F)c3F)C[C@H]2CCCN12 (stereo partly specified) to the correct category.
class 3

Exam item: assign `O=C1c2c(O)c(=O)ccn2N(C2c3ccccc3C=Cc3ccccc32)C[C@H]2CCCN12` to the correct category.
class 3

Exam item: assign `C[C@H]1CN(C2c3ccccc3CCc3ccccc32)n2ccc(=O)c(O)c2C(=O)N1` to the correct category.
class 1
